- target.under.test: Neutrophil elastase (Homo sapiens); further: in other assays of this panel Not Active means under 50% inhibition at 10 µM;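 further: inhibition of neutrophil elastase enzyme activity, measured with a p-nitroanilide-linked peptide substrate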
- Sequence (P08246 whole entry): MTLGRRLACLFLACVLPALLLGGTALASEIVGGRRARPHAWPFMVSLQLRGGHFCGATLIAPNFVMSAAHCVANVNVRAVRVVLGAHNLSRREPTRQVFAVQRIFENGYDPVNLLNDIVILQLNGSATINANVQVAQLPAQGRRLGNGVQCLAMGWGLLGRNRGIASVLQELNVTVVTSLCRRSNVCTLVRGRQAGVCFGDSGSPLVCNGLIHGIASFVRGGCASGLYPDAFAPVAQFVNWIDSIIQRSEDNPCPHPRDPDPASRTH
- Type: tissue-based
readout.type: IC50

Example compounds with recorded IC50:
Req: Quick check: IC50 of COc1ccccc1OCCNCC(O)COc1cccc2[nH]c3ccccc3c12 (stereo not drawn) ?
Resp: Not Active

Req: Quick check: IC50 of O=C1c2ccccc2C(=O)C1c1ccccc1 ?
Resp: Not Active

Req: Quick check: IC50 of CC(Cl)(Cl)Cl ?
Resp: Not Active

Req: Quick check: IC50 of CC(C)(C#N)c1cc(Cn2cncn2)cc(C(C)(C)C#N)c1 ?
Resp: Not Active

Req: Quick check: IC50 of Cc1cc(C(C)(C)C)c(O)c(C)c1CC1=NCCN1 ?
Resp: Not Active

Req: Quick check: IC50 of ClC1=C(Cl)[C@]2(Cl)[C@@H]3[C@@H]4C[C@@H]([C@H]5O[C@@H]45)[C@@H]3[C@@]1(Cl)C2(Cl)Cl ?
Resp: Not Active

---
Req: Quick check: IC50 of O=c1[nH]cnc2c1ncn2[C@H]1CC[C@@H](CO)O1 ?
Resp: Not Active

Req: Quick check: IC50 of CC[C@H](C)C(=O)O[C@H]1CCC=C2C=C[C@H](C)[C@H](CC[C@@H]3C[C@@H](O)CC(=O)O3)[C@H]21 ?
Resp: Not Active

Req: Quick check: IC50 of C[C@@H]1[C@H](O)[C@@H](C)/C=C/C=C/C=C/C=C/C=C/C=C/C=C/[C@H](O[C@@H]2O[C@H](C)[C@@H](O)[C@H](N)[C@@H]2O)C[C@@H]2O[C@](O)(C[C@@H](O)C[C@@H](O)[C@H](O)CC[C@@H](O)C[C@@H](O)CC(=O)O[C@H]1C)C[C@H](O)[C@H]2C(=O)O ?
Resp: Not Active

Req: Quick check: IC50 of CC1(COc2ccc(CC3SC(=O)NC3=O)cc2)CCCCC1 (stereo not drawn) ?
Resp: Not Active

Req: Quick check: IC50 of CC[C@@]1(O)C(=O)OCc2c1cc1n(c2=O)Cc2cc3c(CN(C)C)c(O)ccc3nc2-1 ?
Resp: Not Active

Req: Quick check: IC50 of O=[As][O-].[Na+] [SODIUM ARSENITE] ?
Resp: Not Active

Req: Quick check: IC50 of NCC(CC(=O)O)c1ccc(Cl)cc1 (stereo not drawn) ?
Resp: Not Active
